Source listed as patent US9670242B2.

System: 22Rv1 cells
Experiment: 22Rv1 cell growth inhibition test (SRB assay)
Type: cell-based, human
Settings: growth inhibition at 222 nM, 73 h
EXPERIMENTAL_ENDPOINT: Inhibition Ratio (%)

# COMPOUND, READING
rows = [
    ("COc1cccc2c1C(=O)c1c(O)c3c(c(O)c1C2=O)CC(O)(C(=O)COC(=O)CCC(=O)NN1CCN(C)CC1)CC3OC1CC(n2cccc2)C(O)C(C)O1 (centres unmarked)", 52.1),
    ("COc1cccc2c1C(=O)c1c(O)c3c(c(O)c1C2=O)CC(O)(C(=O)COC(=O)CCC(=O)NCCOCCO)CC3OC1CC(n2cccc2)C(O)C(C)O1 (centres unmarked)", 57),
    ("COc1cccc2c1C(=O)c1c(O)c3c(c(O)c1C2=O)CC(O)(C(=O)COC(=O)CCC(=O)NCCOCCOCCOCCO)CC3O[C@H]1C[C@H](n2cccc2)[C@H](O)[C@H](C)O1 (some centres unmarked)", 52.2),
    ("COc1cccc2c1C(=O)c1c(O)c3c(c(O)c1C2=O)CC(O)(C(=O)COC(=O)CCC(=O)NCCc1ccccn1)CC3OC1CC(n2cccc2)C(O)C(C)O1 (centres unmarked)", 63.3),
    ("COc1cccc2c1C(=O)c1c(O)c3c(c(O)c1C2=O)CC(O)(C(=O)COC(=O)CCC(=O)NCCc1ccc(S(N)(=O)=O)cc1)CC3OC1CC(n2cccc2)C(O)C(C)O1 (centres unmarked)", 56.3),
    ("COc1cccc2c1C(=O)c1c(O)c3c(c(O)c1C2=O)CC(O)(C(=O)COC(=O)CCC(=O)Nc1cccnc1)CC3OC1CC(n2cccc2)C(O)C(C)O1 (centres unmarked)", 63.6),
    ("COc1cccc2c1C(=O)c1c(O)c3c(c(O)c1C2=O)CC(O)(C(=O)COC(=O)CCC(=O)NN1CCOCC1)CC3OC1CC(n2cccc2)C(O)C(C)O1 (centres unmarked)", 62.7),
    ("COc1cccc2c1C(=O)c1c(O)c3c(c(O)c1C2=O)CC(O)(C(=O)COC(=O)CCC(=O)N1CCN(CCO)CC1)CC3OC1CC(n2cccc2)C(O)C(C)O1 (centres unmarked)", 56.8),
    ("COc1cccc2c1C(=O)c1c(O)c3c(c(O)c1C2=O)CC(O)(C(=O)COC(=O)CCC(N)=O)CC3OC1CC(n2cccc2)C(O)C(C)O1 (centres unmarked)", 59),
    ("CCN1CCN(C(=O)CCC(=O)OCC(=O)C2(O)Cc3c(O)c4c(c(O)c3C(OC3CC(n5cccc5)C(O)C(C)O3)C2)C(=O)c2c(OC)cccc2C4=O)CC1 (centres unmarked)", 50.5),
    ("CC(=O)O.COc1cccc2c1C(=O)c1c(O)c3c(c(O)c1C2=O)CC(O)(C(=O)COC(=O)CCC(=O)NCCCN1CCN(C)CC1)CC3O[C@H]1C[C@H](n2cccc2)[C@H](O)[C@H](C)O1 (some centres unmarked)", 56.5),
]

###

Test system: 22Rv1 cells
Assay: 22Rv1 cell growth inhibition test (SRB assay)
Format: cell-based, human
Conditions: growth inhibition at 222 nM, 73 h
Method: 22Rv1 Cell Growth Inhibition Test (SRB Assay) Cell strains: 22Rv1 (human prostate cancer cell strains); SRB: 0.4% (w/v) working solution was formulated with 1% glacial acetic acid, reserved at 4° C.; antitumor compounds; DMSO. II. Reagents and Consumable Materials Culture medium: 90% RPMI-1640+10% FBS; Pancreatin (0.25% (w/v) solution was formulated with PBS, 0.53 mM of EDTA was added in the formulation); PBS; 96-well culture plate. 1. […] 13. OD values were determined at […]. […]
EXPERIMENTAL_ENDPOINT: Inhibition Ratio (%)

# COMPOUND, TESTED_ON, EXPERIMENTAL_ENDPOINT, SCALE_UNIT, READING
measured = [
    ("COc1cccc2c1C(=O)c1c(O)c3c(c(O)c1C2=O)CC(O)(C(=O)COC(=O)CCC(=O)NCc1ccncc1)CC3OC1CC(n2cccc2)C(O)C(C)O1 (stereo not shown)", "22Rv1 cells", "Inhibition Ratio (%)", "%", 60.8),
    ("CC(=O)O.COc1cccc2c1C(=O)c1c(O)c3c(c(O)c1C2=O)CC(O)(C(=O)COC(=O)CCC(=O)NCCOCCN(C)C)CC3O[C@H]1C[C@H](n2cccc2)[C@H](O)[C@H](C)O1 (stereo partly shown)", "22Rv1 cells", "Inhibition Ratio (%)", "%", 49.2),
    ("CC(=O)O.COc1cccc2c1C(=O)c1c(O)c3c(c(O)c1C2=O)CC(O)(C(=O)COC(=O)CCC(=O)N1CCN(CCO)CC1)CC3O[C@H]1C[C@H](n2cccc2)[C@H](O)[C@H](C)O1 (stereo partly shown)", "22Rv1 cells", "Inhibition Ratio (%)", "%", 57.9),
    ("COc1cccc2c1C(=O)c1c(O)c3c(c(O)c1C2=O)CC(O)(C(=O)COC(=O)CCC(=O)Nc1ccc(N2CCOCC2)nc1)CC3OC1CC(n2cccc2)C(O)C(C)O1 (stereo not shown)", "22Rv1 cells", "Inhibition Ratio (%)", "%", 60.9),
    ("COc1cccc2c1C(=O)c1c(O)c3c(c(O)c1C2=O)CC(O)(C(=O)COC(=O)CCC(=O)NCCc1ccncc1)CC3OC1CC(n2cccc2)C(O)C(C)O1 (stereo not shown)", "22Rv1 cells", "Inhibition Ratio (%)", "%", 61.7),
    ("COc1cccc2c1C(=O)c1c(O)c3c(c(O)c1C2=O)CC(O)(C(=O)COC(=O)CCC(=O)NS(C)(=O)=O)CC3OC1CC(n2cccc2)C(O)C(C)O1 (stereo not shown)", "22Rv1 cells", "Inhibition Ratio (%)", "%", 60.7),
    ("COc1cccc2c1C(=O)c1c(O)c3c(c(O)c1C2=O)CC(O)(C(=O)COC(=O)CCCC(=O)NCCc1ccccn1)CC3OC1CC(n2cccc2)C(O)C(C)O1 (stereo not shown)", "22Rv1 cells", "Inhibition Ratio (%)", "%", 58.5),
]
